# Experimental System: urokinase enzyme Abbokinase (Homo sapiens)
# Construct: purchased Abbott Laboratories, Abbott Park, IL
# Protocol Description: Inhibition of urokinase on chromogenic substrate S-2444
# Type: biochemical
pKi: −log10 of the molar value.

Compound	pKi
COC/C=C/c1cc(C2CC2c2ccc3c(c2)C(C(C)C)N(C)CC3)cc2ccc(C(=N)N)cc12 (stereo not shown)	7.68

---

# Experimental System: urokinase enzyme Abbokinase (Homo sapiens, UniProt P00749)
# Construct: purchased Abbott Laboratories, Abbott Park, IL
# Protocol Description: Inhibition of urokinase on chromogenic substrate S-2444
# Format: biochemical
# Experimental Context: read-out: Ki
Please note: Ki exactly at 40 nM is class 0. Only values below 40 nM get class 1.

Compound	Label Value
CCC1CN=C(C(C)C)c2ccc(C3CC3c3ccc4cc(C(=N)N)ccc4c3)cc21 (centres unmarked)	class 0
CC(C)c1nccc2ccc(C3CC3c3ccc4cc(C(=N)N)ccc4c3)cc12 (centres unmarked)	class 0
CC(C)C1=NCCc2ccc(C3CC3c3cc(Br)c4cc(C(=N)N)ccc4c3)cc21 (centres unmarked)	class 0
CN1CCc2ccc(C3CC3c3cc(Br)c4cc(C(=N)N)ccc4c3)cc2C1C1CCCCC1 (centres unmarked)	class 1
CC(C)C1c2cc(C3CC3c3cc(-c4ccoc4)c4cc(C(=N)N)ccc4c3)ccc2CCN1C (centres unmarked)	class 1
CC(C)C1c2cc(C=Cc3ccc4cc(C(=N)N)ccc4c3)ccc2CCN1C (centres unmarked)	class 0
CC1c2cc(C3CC3c3ccc4cc(C(=N)N)ccc4c3)ccc2CCN1C (centres unmarked)	class 0
COCC=Cc1cc(C2CC2c2ccc3c(c2)C(C(C)C)=NCC3)cc2ccc(C(=N)N)cc12 (centres unmarked)	class 0
CC(C)/C=C/c1cc(C2CC2c2ccc3c(c2)C(C(C)C)=NCC3)cc2ccc(C(=N)N)cc12 (centres unmarked)	class 1
CCC1CN=C(C(C)C)c2ccc(C=Cc3ccc4cc(C(=N)N)ccc4c3)cc21 (centres unmarked)	class 0
CC(C)/C=C/c1cc(C2CC2c2ccc3c(c2)C(C(C)C)N(C)CC3)cc2ccc(C(=N)N)cc12 (centres unmarked)	class 1
COC(=O)N1CCc2ccc(C=Cc3ccc4cc(C(=N)N)ccc4c3)cc2C1C(C)C (centres unmarked)	class 0
N=C(N)c1ccc2cc(C3CC3c3ccc4c(c3)C(c3ccccc3)=NCC4)ccc2c1 (centres unmarked)	class 0
CC(C)/C=C/c1cc(C2CC2c2ccc3c(c2)C(C2CCCCC2)N(C)CC3)cc2ccc(C(=N)N)cc12 (centres unmarked)	class 1
CCC1(CC)CN=C(C(C)C)c2ccc(C3CC3c3ccc4cc(C(=N)N)ccc4c3)cc21 (centres unmarked)	class 0
CC(C)C1c2cc(C3CC3c3cc(C4CC4)c4cc(C(=N)N)ccc4c3)ccc2CCN1C (centres unmarked)	class 1

Origin of values: patent EP1276722B1
